Field: self-splicing fitness (ln). Provide a value for each of the sequences that follow.
- METHOD_NOTES: self-splicing fitness, log relative to wild type (ln ratio); higher = more splicing; Tetrahymena group I intron in knt gene, E. coli kanamycin selection, DiMSum; sequences stand for … in CUCUCU…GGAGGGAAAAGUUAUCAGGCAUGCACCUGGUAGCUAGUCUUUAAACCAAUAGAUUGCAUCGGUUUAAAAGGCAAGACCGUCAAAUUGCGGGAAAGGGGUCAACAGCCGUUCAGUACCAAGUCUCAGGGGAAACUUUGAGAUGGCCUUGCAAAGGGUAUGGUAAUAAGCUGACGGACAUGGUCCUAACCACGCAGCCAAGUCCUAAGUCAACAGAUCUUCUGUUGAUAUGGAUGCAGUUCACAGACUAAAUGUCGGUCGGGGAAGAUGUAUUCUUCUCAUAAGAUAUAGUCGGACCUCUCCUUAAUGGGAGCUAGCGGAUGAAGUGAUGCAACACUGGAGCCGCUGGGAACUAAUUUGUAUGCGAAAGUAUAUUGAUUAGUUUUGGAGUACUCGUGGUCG;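 note: selection with 25 µg/mL kanamycin versus none on LB agar overnight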
- PROTOCOL_CONDITIONS: 37 °C
Enter a number only.

Problem: Record request: self-splicing fitness (ln) value, item UAAGAGCAAUAUUACGUCCU
Solution: -2.49

Problem: Record request: self-splicing fitness (ln) value, item CGUUAGCAAUAUUACGGUGU
Solution: -2.29

Problem: Record request: self-splicing fitness (ln) value, item ACGUAGCAAUAUUACGCGGC
Solution: -2.47

Problem: Record request: self-splicing fitness (ln) value, item ACUGAGCAAUAUUACGGUUG
Solution: -1.73

Problem: Record request: self-splicing fitness (ln) value, item AUAUAGCAAUAUUACGAGGA
Solution: -2.44

Problem: Record request: self-splicing fitness (ln) value, item UUUCAGCAAUAUUACGCGUC
Solution: -2.01

Problem: Record request: self-splicing fitness (ln) value, item GCCAAGCAAUAUUACGGCAU
Solution: -2.55

Problem: Record request: self-splicing fitness (ln) value, item GUAGAGCAAUAUUACGUCCG
Solution: -2.49

* * *

- METHOD_NOTES: self-splicing fitness, log relative to wild type (ln ratio); higher = more splicing; Tetrahymena group I intron in knt gene, E. coli kanamycin selection, DiMSum; sequences stand for … in CUCUCU…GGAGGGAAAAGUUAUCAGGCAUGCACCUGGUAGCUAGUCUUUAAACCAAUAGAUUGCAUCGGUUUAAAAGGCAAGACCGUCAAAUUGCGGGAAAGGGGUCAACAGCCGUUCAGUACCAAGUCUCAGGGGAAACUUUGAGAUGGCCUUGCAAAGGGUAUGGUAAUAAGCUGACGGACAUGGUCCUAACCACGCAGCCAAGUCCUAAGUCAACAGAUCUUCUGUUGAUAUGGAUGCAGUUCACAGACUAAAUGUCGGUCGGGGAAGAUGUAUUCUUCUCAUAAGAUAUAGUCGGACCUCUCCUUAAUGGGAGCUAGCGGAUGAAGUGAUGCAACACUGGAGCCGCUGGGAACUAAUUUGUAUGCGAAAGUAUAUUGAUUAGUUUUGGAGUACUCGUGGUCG
- PROTOCOL_CONDITIONS: 30 °C
OBSERVABLE: self-splicing fitness (ln)
Enter a number only.

Problem: Record request: self-splicing fitness (ln) value, item AACUAGCAAUAUUACGCCAA
Solution: -2.83

Problem: Record request: self-splicing fitness (ln) value, item GGUUAGCAAUAUUACGCCCG
Solution: -3.15

Problem: Record request: self-splicing fitness (ln) value, item AGACAGCAAUAUUACGAUUC
Solution: -1.12

Problem: Record request: self-splicing fitness (ln) value, item ACGCAGCAAUAUUACGGCUC
Solution: -0.489

Problem: Record request: self-splicing fitness (ln) value, item AUUUAGCAAUAUUACGGUAA
Solution: -1.59

Problem: Record request: self-splicing fitness (ln) value, item CCUCAGCAAUAUUACGUUAC
Solution: -3.54

Problem: Record request: self-splicing fitness (ln) value, item CGAUAGCAAUAUUACGGGAG
Solution: -2.86

Problem: Record request: self-splicing fitness (ln) value, item AAUGAGCAAUAUUACGAUCU
Solution: -0.572
